EXPERIMENT: AUC in DIO mice plasma at 10 mg/kg, po
Assay type: ADME, organism-based
Parameters: dose 10 mg/kg, route oral
STATED_CONDITIONS: mouse
MEASURED_ATTRIBUTE: AUC (ng·h/mL)
Value expressed in ng·h/mL; do not type the unit.

COc1ccc2c(=O)cc(C(=O)NC3CCN(Cc4ccc5c(c4)OCO5)CC3)oc2c1; 18700

get_value(item= O=C(Nc1ccc(Oc2ccccc2)cc1)Nc1ccc2nn(CCN3CC[C@H](O)C3)cc2c1 , readout=AUC) returns 1020

###

STUDY_SYSTEM: UniProt Q99705
Sequence (Q99705 whole entry): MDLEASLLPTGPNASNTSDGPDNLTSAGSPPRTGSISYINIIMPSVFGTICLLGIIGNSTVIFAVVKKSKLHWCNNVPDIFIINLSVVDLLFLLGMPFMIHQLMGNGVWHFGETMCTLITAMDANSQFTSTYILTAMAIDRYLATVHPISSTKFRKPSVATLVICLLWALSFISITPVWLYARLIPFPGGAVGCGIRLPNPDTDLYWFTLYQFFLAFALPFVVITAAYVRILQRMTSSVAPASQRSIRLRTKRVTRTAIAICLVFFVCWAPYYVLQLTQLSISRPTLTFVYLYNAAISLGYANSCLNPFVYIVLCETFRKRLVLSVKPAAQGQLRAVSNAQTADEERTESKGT
EXPERIMENT: Displacement of [125I]MCH from MCHr1 expressed in IMR32 (I3.4.2) cells
Each entry belongs to exactly one class, chosen by where its IC50 falls: lower range (below 5 nM), middle range (5 nM to below 50 nM), upper range (50 nM or more)

Study these solved cases before continuing.
COc1ccc2c(=O)cc(C(=O)NC3CCN(Cc4ccc5c(c4)OCO5)CC3)oc2c1; middle range
O=C(NC1CCN(Cc2ccc3c(c2)OCO3)CC1)c1cc(=O)c2cc(Cl)c(Cl)cc2o1; lower range
COc1ccc2oc(O)c/c(=N\C3CCN(Cc4ccc5c(c4)OCO5)CC3)c2c1; lower range
O=C(Cc1ccc(Oc2ccccc2)cc1)Nc1ccc2c(cnn2CCN2CCCC2)c1; upper range
O=C(Nc1ccc(Oc2ccccc2)cc1)Nc1ccc2nn(CCN3CCCC3)cc2c1; middle range
Clc1ccc2[nH]nc(NC3CCN(Cc4ccc5c(c4)OCO5)CC3)c2c1; middle range

## Task Which class is correct for the following compound? COc1ccc2nccc(NC3CCN(Cc4ccc5c(c4)OCO5)CC3)c2c1
## Result middle range

## Task Category of O=C(Nc1ccc(Oc2ccccc2)cc1)Nc1ccc2c(cnn2CCN2CCCCCC2)c1 :
## Result lower range

## Task Sort into band: O=C(Nc1ccc(Oc2ccccc2)cc1)Nc1ccc2nn(CCN3CC[C@H](O)C3)cc2c1
## Result upper range

## Task For COc1ccc(CC(=O)Nc2ccc3cnn(CCN4CCCC4)c3c2)cc1 , which IC50 bin applies?
## Result upper range
